Test system: F1 hybrid maize plants
Assay: trait efficacy field trial, quizalofop-P pressure screening, F1 hybrid
Format: in vivo
Settings: CTP A; crop injury percentage; 0.32 lb ai/acre at VE-V2, V4, V8
Recorded 4X Qizalofop-P CIPV8, one value per entry.

{"columns": ["Molecule", "4X Qizalofop-P CIPV8"],
 "data": [
  ["MON-HT2: engineered oxygenase protein, amino acid sequence SEQ ID NO:18 (protein) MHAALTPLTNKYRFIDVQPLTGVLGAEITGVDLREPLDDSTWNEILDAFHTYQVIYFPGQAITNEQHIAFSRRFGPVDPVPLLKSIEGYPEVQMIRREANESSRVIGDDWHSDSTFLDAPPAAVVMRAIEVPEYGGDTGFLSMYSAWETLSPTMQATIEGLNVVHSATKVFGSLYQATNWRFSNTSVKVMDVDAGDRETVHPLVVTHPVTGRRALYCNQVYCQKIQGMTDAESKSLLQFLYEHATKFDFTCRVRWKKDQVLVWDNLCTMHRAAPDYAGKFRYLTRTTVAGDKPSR", 5],
  ["MON-HT9: engineered oxygenase protein, amino acid sequence SEQ ID NO:40 (protein) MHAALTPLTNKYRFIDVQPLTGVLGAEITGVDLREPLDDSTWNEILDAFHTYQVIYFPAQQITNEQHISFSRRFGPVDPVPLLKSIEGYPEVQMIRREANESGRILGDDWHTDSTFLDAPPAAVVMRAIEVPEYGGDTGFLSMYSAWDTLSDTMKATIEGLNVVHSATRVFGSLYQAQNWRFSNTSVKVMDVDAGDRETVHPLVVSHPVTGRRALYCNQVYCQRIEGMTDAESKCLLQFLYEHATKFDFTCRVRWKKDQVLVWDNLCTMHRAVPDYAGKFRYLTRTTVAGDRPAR", 5]
]}
